Assay: Primary qHTS for inhibitors of nuclear receptor binding SET domain protein 2 (NSD2) in an RCH-ACV wild type WT cells (2C) (AID 1645877); also: nearly all actives have a fitted effect of over 70% in size
Conditions: RCH-ACV (leukaemia line) NSD2 WT (2C) viability, CellTiter-Glo, 72 h; series mostly up to 44.9 µM
From the text: Assay Provider: Jonathan D. Licht, MD University of Florida College of Medicine, Gainesville, FL Mutations in epigenetic regulators are common in relapsed pediatric acute lymphoblastic leukemia (ALL). Here, we uncovered the mechanism underlying the relapse of ALL driven by an activating mutation of the NSD2 histone methyltransferase (p.E1099K). […] Correction of this mutation restored glucocorticoid sensitivity. […]
Records with an inconclusive call do not appear. Calls of active or inactive are those of the source. Calls follow the shape of the dose curve; as a rule, active = well fitted inhibition curve with a large enough effect; inconclusive = small, poorly fitted or top-dose-only effect; inactive = no such curve, though single readings can be large or run the other way.
Give your call using only these classes: active, inactive

CC(O)(P(=O)(O)O)P(=O)(O)O :: inactive
CNCCC=C1c2ccccc2CCc2ccccc21 :: active
Cc1onc(-c2c(Cl)cccc2Cl)c1C(=O)N[C@@H]1C(=O)N2[C@@H]1SC(C)(C)[C@@H]2C(=O)O :: inactive
C[C@H]1[C@H](NC(=O)/C(=N/OC(C)(C)C(=O)O)c2csc(N)n2)C(=O)N1S(=O)(=O)O (stereo in doubt) :: inactive

Read the next record carefully.
Task item: # fetch the recorded call for CCN1CCC[C@H]1CNC(=O)c1c(OC)ccc(Br)c1OC here
Reply: inactive

* * *

test: qHTS of pediatric cancer cell lines to identify multiple opportunities for drug repurposing: Confirmatory screen for A673 cells (AID 1347110); details: A673 Ewing sarcoma cell viability; series mostly up to 45.9 µM;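 also: cells exposed to compound for 48 h before the viability read; nearly all actives have a fitted effect of over 65% in size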
Inconclusive results are not listed. Activity calls are given as the source filed them. The call rests on the fitted dose curve; in most records, active means well fitted cell-killing curve with a large enough effect; inconclusive means small, poorly fitted or top-dose-only effect; inactive means flat fitted curve, though single readings scatter.
Select the correct class. Options are active, inactive and nothing else.

CCCCC(=O)O[C@]1(C(=O)CO)CC[C@H]2[C@@H]3CCC4=CC(=O)CC[C@]4(C)[C@H]3[C@@H](O)C[C@@]21C :: inactive
NC(CO)(CO)CO :: inactive
CCOc1ccc2nc3cc(N)ccc3c(N)c2c1 :: active
CN(C)C(=S)SC(=S)N(C)C :: active

Task item: Per the records of this test, what outcome belongs to COc1cc(C=C2CCC/C(=C\c3ccc(O)c(OC)c3)C2=O)ccc1O ?
Reply: active

* * *

# maps each entry to its max response
molecular target: Retinoic acid receptor RXR-alpha (Homo sapiens); assay: qHTS assay for small molecule antagonists of retinoid X receptor alpha signaling (AID 588546); conditions: HEK293T RXRa-UAS-bla, beta-lactamase ratio, antagonist mode;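 also: cells stimulated with 9-cis-retinoic acid as agonist; % is scaled to controls: 0 for no effect and ±100 for the full control effect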
Results filed as inconclusive are left out. The source made the active and inactive calls. Calls come from the whole dose curve; as a rule, active = well fitted inhibition curve with a large enough effect in the signal ratio, with a control signal flat (not every such curve was filed as active); inconclusive = small, poorly fitted or top-dose-only effect, or effect the other way, or a change in a side signal; inactive = no such curve, though single readings can be large or run the other way; the % refers to the signal ratio.

Study these solved cases before continuing.
C[C@H]1C[C@H]2[C@@H]3CCC4=CC(=O)C=C[C@]4(C)[C@@]3(Cl)[C@@H](O)C[C@]2(C)[C@@]1(O)C(=O)CO :: -25.7% (inactive)
CC(C)(Oc1ccc(Cl)cc1)C(=O)O :: 2.91% (inactive)
CN(C)/N=N/c1nc[nH]c1C(N)=O :: 17.7% (inactive)
CN(C)C(=S)SC(=S)N(C)C :: -27.1% (inactive)

Please look at the following compound next.
Task item: Could you share what max response was measured for Nc1ccc(C(=O)O)cc1 , tested on Retinoic acid receptor RXR-alpha (Homo sapiens)?
Reply: -5.07% (inactive)

* * *

Experiment: qHTS of pediatric cancer cell lines to identify multiple opportunities for drug repurposing: Primary screen for Saos-2 cells (AID 1347097); also: nearly all actives have a fitted effect of over 40% in size
Conditions: Saos-2 viability, CellTiter-Glo ATP luminescence, 48 h; series mostly up to 46 µM
Procedure: Drug repurposing or repositioning has been offered as a strategy for drug development in oncology programs. This approach has special potential for childhood cancers and other rare or orphan diseases, where the expected return on new drug development has been a disincentive to pharmaceuticals. […] We employed a titration-based paradigm (quantitative high-throughput screening or qHTS), where all compounds were tested at multiple concentrations for their effect on cell viability. […]
Records with an inconclusive call do not appear. Active and inactive are the calls of the source. Calls follow the shape of the dose curve; as a rule, active = well fitted cell-killing curve with a large enough effect; inconclusive = small, poorly fitted or top-dose-only effect; inactive = no such curve, though single readings can be large or run the other way.
I would appreciate it if you answered using one of these outcomes: 1 (yes) (active), 0 (no) (inactive)

Cc1cc(=O)n(-c2ccccc2)n1C :: 0 (no)
Oc1c(I)cc(Cl)c2cccnc12 :: 1 (yes)
Cc1ccc(C(=O)C(C)CN2CCCCC2)cc1 (stereo not drawn) :: 0 (no)
CC(=O)OCC(=O)[C@@]12N=C(C)O[C@@H]1C[C@H]1[C@@H]3CCC4=CC(=O)C=C[C@]4(C)[C@H]3[C@@H](O)C[C@@]12C :: 0 (no)
COc1cccc(CCc2ccccc2OCC(CN(C)C)OC(=O)CCC(=O)O)c1 (stereo not drawn) :: 0 (no)

Task item: Lab log entry: Cc1c(C(N)=O)cc([N+](=O)[O-])cc1[N+](=O)[O-] — outcome as called in the assay?
Reply: 0 (no)

Task item: Identify the outcome logged in this assay for the molecule shown: O=C(OCC(O)CO)c1ccccc1Nc1ccnc2cc(Cl)ccc12 (stereo not drawn)
Reply: 1 (yes)

* * *

target: Voltage-gated inwardly rectifying potassium channel KCNH2 (Homo sapiens); test: qHTS Assay for Small Molecule Inhibitors of the Human hERG Channel Activity (AID 588834); settings: U2OS BacMam hERG, FluxOR thallium flux fluorescence; series mostly up to 46.1 µM;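 also: lower thallium flux fluorescence means stronger hERG block; nearly all actives have a fitted effect of over 50% in size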
Inconclusive results are not listed. Activity calls are given as the source filed them. Calls come from the whole dose curve; as a rule, active = well fitted inhibition curve with a large enough effect; inconclusive = small, poorly fitted or top-dose-only effect; inactive = flat fitted curve, though single readings scatter.
Choose the fitting class; nothing outside True = active, False = inactive is accepted.

Solved cases below.
O=C(CCCN1CCC(O)(c2ccc(Br)cc2)CC1)c1ccc(F)cc1 :: True
O=c1c(-c2ccccc2)c1-c1ccccc1 :: False

Okay, now this molecule:
Task item: Given COc1cccc2c1C(=O)c1c(O)c3c(c(O)c1C2=O)C[C@@](O)(C(=O)CO)C[C@@H]3O[C@H]1C[C@H](N)[C@H](O)[C@H](C)O1 , state the outcome it received in this test.
Reply: False

* * *

assay: qHTS Assay for Identifying Gametocytocidal Compounds (AID 743244);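 also: % is scaled to controls: 0 for no effect and ±100 for the full control effect; actives lower the fluorescent signal which means gametocytes are killed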; settings: P. falciparum 3D7 stage III-V gametocytes, alamarBlue, 72 h; hits give low values
Results filed as inconclusive are left out.
value_type: max response (%)
Reply with just the number (in %).

Below are worked cases with known answers.
CCCN1CCCC[C@H]1C(=O)Nc1c(C)cccc1C :: -10.7
C[C@]12C=CC(=O)C=C1CC[C@@H]1[C@@H]2[C@@H](O)C[C@@]2(C)[C@H]1CC[C@]2(O)C(=O)CO :: 0.844
CN(C)CCOc1ccccc1Cc1ccccc1 :: -21.1
CN(C)/N=N/c1nc[nH]c1C(N)=O :: 5.22
CN(C)CC/C=C1/c2ccccc2COc2ccc(CC(=O)O)cc21 :: 3.04

Now, please, on to the next molecule.
Task item: Could you share which max response value was measured for CCCCCC=CCC=CCCCCCCCC(=O)OCC ?
Reply: 0.796

* * *

assay: qHTS assay to identify small molecule inhibitors of chordoma cells - UCH-1 (AID 1259355); conditions: UCH-1 chordoma viability, CellTiter-Glo, 48 h, combination, with auranofin plus four topoisomerase inhibitors; series mostly up to 46.1 µM; also: % is scaled to controls: 0 for no effect and ±100 for the full control effect; nearly all actives have a fitted effect of over 55% in size
Results filed as inconclusive are left out. Active and inactive are the calls of the source. Calls come from the whole dose curve; as a rule, active = well fitted cell-killing curve with a large enough effect; inconclusive = small, poorly fitted or top-dose-only effect, or effect the other way; inactive = no such curve, though single readings can be large or run the other way.
value_type: outcome

Use these answered entries as a reference point.
CCCCC1=NC2(CCCC2)C(=O)N1Cc1ccc(-c2ccccc2-c2nn[nH]n2)cc1 :: inactive
CC[C@@H](CO)NCCN[C@@H](CC)CO :: inactive
CC(C)NC[C@@H](O)COc1cccc2ccccc12 :: inactive
c1ccc(OCc2ccc(CCCN3CCOCC3)cc2)cc1 :: inactive
Clc1ccc2c(c1)CCc1cccnc1C2=C1CCNCC1 :: inactive

Let's switch to this molecule now.
Task item: Bench note: what outcome did NCCCC[C@H](N[C@@H](CCc1ccccc1)C(=O)O)C(=O)N1CCC[C@H]1C(=O)O show?
Reply: inactive

* * *

assay: qHTS profiling for inhibitors of Plasmodium falciparum proliferation (AID 504749); also: potency is read from the fitted curve at half-maximal effect; nearly all actives have a fitted effect of over 60% in size; details: P. falciparum in erythrocytes, SYBR Green DNA, 72 h; parasite line B
Results filed as inconclusive are left out. Calls of active or inactive are those of the source. Calls come from the whole dose curve; as a rule, active = well fitted inhibition curve with a large enough effect; inconclusive = small, poorly fitted or top-dose-only effect; inactive = flat fitted curve, though single readings scatter. Numbered stars: 1 amine (or outer) side, 2 acyl side, 3 side chain; on linkers, the order of the positions; unused ones are H or OH. Bridge positions count the residues as written; N and C are the ends. Square brackets hold non-standard residues; d marks the D form. Peptide text beside a SMILES is read from it. I, II: the chains in the order shown. Actinocin(9to1) = Cc1c2oc3c(C)ccc(C(=O)[*:1])c3nc-2c(C(=O)[*:2])c(N)c1=O; NMeV = CN[C@H](C(=O)O)C(C)C; Sar = CNCC(=O)O
value_type: Potency

Example compounds with recorded Potency:
CC(C)N=C(N)/N=C(\N)Nc1ccc(Cl)cc1 :: 1.58 µM (active)
COc1cccc(CCc2ccccc2OCC(CN(C)C)OC(=O)CCC(=O)O)c1 (stereo not drawn) :: 6.31 µM (active)
CCCCCCC[N+](CC)(CC)CCCCc1ccc(Cl)cc1 :: 2.24 µM (active)
CCCCc1nc(Cl)c(CO)n1Cc1ccc(-c2ccccc2-c2nn[nH]n2)cc1 :: 12.6 µM (active)
CCCCCCCCCCCCCCCC[N+](C)(C)CC :: 5.01 µM (active)

Task item: # get_value(readout='Potency', item= CCOc1ccc2nc3cc(N)ccc3c(N)c2c1 )
Reply: 5.01 µM (active)

Task item: Field request: Potency | item: COc1cc(NS(C)(=O)=O)ccc1Nc1c2ccccc2nc2ccccc12
Reply: 3.16 µM (active)

Task item: Returns the measured Potency for the input compound. Input: CN1CCC(=C2c3ccccc3Sc3ccccc32)CC1
Reply: 10 µM (active)

Task item: Which Potency is listed for CC(C)(C)CC(C)(C)c1ccc(O)c(Cc2ccc(Cl)cc2Cl)c1 ?
Reply: 0.562 µM (active)

Task item: Bench note: what Potency did COc1ccc(/C=C/C(=O)c2ccc(OC)cc2OC)cc1 show?
Reply: 8.91 µM (active)

Task item: So what's the measured Potency for this one? Cc1cc(N)c2cc(NC(=O)Nc3ccc4nc(C)cc(N)c4c3)ccc2n1
Reply: 11.2 µM (active)

Task item: Bench note: what Potency did NC(=NCCCCCCN=C(N)/N=C(\N)Nc1ccc(Cl)cc1)/N=C(\N)Nc1ccc(Cl)cc1 show?
Reply: 3.98 µM (active)

Task item: If you can, please state the reported Potency value of O=C(N/N=C/c1ccccc1O)c1ccncc1 .
Reply: 11.2 µM (active)

Task item: Give the measured Potency of COc1cccc2c1C(=O)c1c(O)c3c(c(O)c1C2=O)C[C@@](O)(C(C)=O)C[C@@H]3O[C@H]1C[C@H](N)[C@H](O)[C@H](C)O1 .
Reply: 7.08 µM (active)

Task item: Could you tell me which Potency is on file for O=c1c(-c2ccccc2)c1-c1ccccc1 ?
Reply: 10 µM (active)

Task item: Potency for Cc1c2oc3c(C)ccc(C(=O)N[C@@H]4C(=O)N[C@H](C(C)C)C(=O)N5CCC[C@H]5C(=O)N(C)CC(=O)N(C)[C@@H](C(C)C)C(=O)O[C@@H]4C)c3nc-2c(C(=O)N[C@@H]2C(=O)N[C@H](C(C)C)C(=O)N3CCC[C@H]3C(=O)N(C)CC(=O)N(C)[C@@H](C(C)C)C(=O)O[C@@H]2C)c(N)c1=O (I: T[dV]P[Sar][NMeV] / II: T[dV]P[Sar][NMeV]; ester I:1-I:C, II:1-II:C; linker I:N-II:N via Actinocin(9to1)) ?
Reply: 0.0063 µM (active)

Task item: Field request: Potency | item: COc1ccc(CN2CCN(C(c3ccc(F)cc3)c3ccc(F)cc3)CC2)c(OC)c1OC
Reply: 8.91 µM (active)

Task item: What does the record list as Potency for CC1=C(C(=O)OC(C)C)C(c2cccc([N+](=O)[O-])c2)C(C(=O)OC2CN(C(c3ccccc3)c3ccccc3)C2)=C(N)N1 (stereo not drawn) ?
Reply: 7.08 µM (active)
